We begin with a simple list: items and their reported TGI.
# Tested on: SK-MEL-2 melanoma
# assay: NCI tumour cell line growth inhibition, 48 h
result-type: TGI (µM)

> print(dat)
                                   compound  system.under.test  result.type  limit.operator  observed.value
1  Cc1cn(Cc2cccc(C3=NCCCN3)c2)c(=O)n(Cc2cccc(C3=NCCCN3)c2)c1=O  SK-MEL-2 melanoma          TGI               >             100
2               Cc1nc2sc3c(N)ncnc3c2c(C)c1C  SK-MEL-2 melanoma          TGI               >              25
3  Cc1ccc(S(=O)(=O)N/N=C2\CCC3(O)CC2(C)CCC2C3CC2(C)C)cc1 (stereo unspecified)  SK-MEL-2 melanoma          TGI               =            87.1
4  COc1ccc2c(c1)C(OC)C1c3c(cc4c(c3-2)OCO4)CCN1C (stereo unspecified)  SK-MEL-2 melanoma          TGI               =             7.9
5                O=C1OCC(c2ccc(Cl)cc2)=C1Cl  SK-MEL-2 melanoma          TGI               =            64.1
6        Nc1nc(Cl)c2ncn(Cc3cccc(CCl)c3)c2n1  SK-MEL-2 melanoma          TGI               =            58.5

----------
# Test system: T-47D breast
# assay: NCI tumour cell line growth inhibition, 48 h
result-type: TGI (µM)

> print(dat)
                                   compound  system.under.test  result.type  limit.operator  observed.value
1         CC/C(Cl)=N\OC(=O)Nc1ccc(OC)c(C)c1       T-47D breast          TGI               =            39.1
2  CCOC(=O)NN(C(=O)OCC)C(=C(C1=CCCCC1)N1CCOCC1)N(NC(=O)OCC)C(=O)OCC       T-47D breast          TGI               >             100
3  CCOC(=O)OC1C(Br)C2CCC1(C)C2(C)C (stereo not given)       T-47D breast          TGI               =            30.3
4  C=C1C(=O)O[C@H]2[C@H]1CC/C(COC(=O)/C=C\C(=O)NCc1ccc(Cn3c(=O)sn(CCI)c3=O)cc1)=C\CC[C@@]1(C)O[C@@H]21       T-47D breast          TGI               =            6.83
5  CCS(=O)c1c2cc(OC)ccc2nc2ccc(OC)cc12 (stereo not given)       T-47D breast          TGI               =            5.85

----------
# Tested on: M19-MEL melanoma
# assay: NCI tumour cell line growth inhibition, 48 h
result-type: TGI

> print(dat)
                                    compound  observed.value
 1             COCN(C)c1nc(N(C)C)nc(N(C)C)n1        > 100 µM
 2   CCn1c(=O)c(C(=O)O)c(Cl)c2cc3c(cc21)OCO3        > 100 µM
 3  CC(=O)c1ccccc1NC(=O)C(=O)C(C(=O)c1ccccc1-c1ccccc1)C1OC(=O)c2ccccc21 (stereo not given)         48.2 µM
 4  Nc1nc(N)c2ncn(CCOC(c3ccccc3)P(=O)(O)O)c2n1 (stereo not given)        > 100 µM
 5  CC1=NN2C(c3ccc([N+](=O)[O-])cc3)=CSC2=NC(C)(C)C1        > 100 µM
 6  COC(=O)c1c(-c2cc(OC)c(OC)c(OC)c2)oc2ccccc2c1=O        > 100 µM
 7  COc1cc(/C=C(\NC(=O)c2ccccc2)c2nc3ncncc3[nH]2)cc(OC)c1OC        > 100 µM
 8    O=C(N=c1nc(NC(=O)c2ccccc2)ss1)c1ccccc1        > 100 µM
 9       C[n+]1c2ccccc2c(CNCC(=O)O)c2ccccc21         16.5 µM
10  C[C@]12CC[C@H](O)CC1=CC[C@@H]1C2CC[C@]2(C)C(=O)NC(=O)CC12 (stereo not given in full)        > 100 µM

----------
# Test system: PC-3 prostate
# assay: NCI tumour cell line growth inhibition, 48 h
We begin with a simple list: items and their reported TGI.

compound	TGI
COc1ccc2c(c1)C(OC)C1c3c(cc4c(c3-2)OCO4)CCN1C (stereo unspecified)	9.34 µM
CN1C(=O)C(C(=O)Nc2ccccn2)C2C[C@@]1(C)Oc1ccccc12 (stereo partly specified)	> 100 µM
O=c1oc2ccccc2c(O)c1C(c1ccc(-c2ccccc2)cc1)c1c(O)c2ccccc2oc1=O	56.4 µM
c1ccc(-c2c(-c3cccs3)[nH]c(-c3cccs3)c2-c2ccccn2)nc1	30.8 µM
Cc1nc2cc3ccccc3cc2[nH]c1=O	> 100 µM
COC(=O)c1c(O)ccc2c1c1c(n2Cc2ccccc2OC)C(=O)c2ccccc2C1=O	24.5 µM
c1ccc(-c2n(Cc3ccc4ccccc4c3)c3ccccc3[n+]2Cc2ccc3ccccc3c2)cc1	1.13 µM
COc1ccc(N=Nc2ccc3oc(=O)c(C(=O)Nc4ccccc4C)cc3c2)cc1	> 10 µM
CCCCCCCCCCNCCSS(=O)(=O)O	4.07 µM
O=C(c1ccc([N+](=O)[O-])cc1)C(Br)C(Br)c1ccnc2ccccc12 (stereo unspecified)	21.1 µM
COc1ccccc1[As]=[As]c1ccccc1OC (stereo unspecified)	0.195 µM
CO[C@]12S[C@@H]3CCCC[C@@]31C(C)(C)C(=O)N2c1ccccc1	96.7 µM
O=[N+]([O-])c1ccc2sc(/C=N/c3ccccn3)cc2c1	> 100 µM
CC(=O)Nc1cc2cc(NS(=O)(=O)c3ccc(Cl)c(Cl)c3)ccc2oc1=O	51.1 µM
Cc1c2ccncc2c(C)c2c1sc1ccccc12	26.4 µM
CCOC(=O)c1c(C)nc2c(c1N)/C(=C/c1ccccn1)C(=O)N2Cc1ccccc1	2.64 µM
O=C(COc1ccccc1)N(C(=O)N1CCN(c2ccccc2)CC1)S(=O)(=O)c1ccccc1	> 100 µM
COc1ccccc1/C=C1\S/C(=N/Nc2nc(C)c(C(C)=O)s2)NC1=O	> 100 µM
OC1CCCC2CCC[N-]C12.OC1CCCC2CCC[N-]C12.[O]=[V][OH] (stereo unspecified)	8.63 µM
COC1C=COC2(C)Oc3c(C)c(O)c4c(O)c(c(C5SCCS5)c(O)c4c3C2=O)NC(=O)/C(C)=C\C=CC(C)C(O)C(C)C(O)C(C)C(OC(C)=O)C1C (stereo unspecified)	20 µM
COc1c(C(C)(C)C)cc(CC2C(=O)C=CC2=O)cc1C(C)(C)C	35.8 µM

----------
# System: SW-620 colon
# assay: NCI tumour cell line growth inhibition, 48 h
We begin with a simple list: items and their reported GI50.
result-type: GI50

> print(dat)
                                    compound  observed.value
 1  Oc1[nH]c2ccccc2c1/C=c1/ccc2c(c1)N=C(c1ccc(C(F)(F)F)cc1)N=2         1.92 µM
 2  O=C1C=C(OCC=C(C(F)(F)F)C(F)(F)F)c2ccccc2C1=O         1.92 µM
 3  CCOc1ccc(C(C[N+](=O)[O-])Sc2ccccc2N)cc1 (stereo not given)         1.73 µM
 4  Nc1ncc(-c2ccc3ncnc(N4CCc5ccc(Cl)cc54)c3c2)cc1C(F)(F)F         3.55 µM
 5  C/C=C/C(=O)[O-].C/C=C/C(=O)[O-].N.N.N.N.[Co+3].[O-][Cl+3]([O-])([O-])[O-]        > 100 µM
 6  COc1ccc(-c2cc(-c3ccc(Cl)cc3)nc(NCCCCNc3ccnc4cc(Cl)ccc34)n2)cc1         1.76 µM
 7  CCN(CC)c1ccc(-c2cc(-c3cc(OC)c(OC)c(OC)c3)nc(N3CCC(O)CC3)c2C#N)cc1        0.448 µM
 8  CS(=O)(=O)c1cccc(Nc2ncc3cc(-c4ccccc4Cl)ccc3n2)c1         1.78 µM
 9                  CCCCCCCCCCNCCSS(=O)(=O)O         1.95 µM
10  Cn1c(=O)c(Oc2ccc(F)cc2F)cc2cnc(N[C@@H]3CCOC3)nc21         > 25 µM

----------
# Test system: SW-620 colon
# assay: NCI tumour cell line growth inhibition, 48 h
We begin with a simple list: items and their reported TGI.
result-type: TGI (µM)

> print(dat)
                                    molecule  limit.operator  observed.value
 1         CC/C(Cl)=N\OC(=O)Nc1ccc(OC)c(C)c1               >            68.8
 2     CS(=O)(=O)c1ccc2nc(-c3ccc(O)cc3)sc2c1               =            38.4
 3  COc1ccc2c(c1)C(OC)C1c3c(cc4c(c3-2)OCO4)CCN1C (stereo not given)               =            18.7
 4  CN(C)Cc1ccc(NC(=O)c2cncc(C#Cc3cnc(N)c4ncccc34)c2)cc1F               =               4
 5  COc1ccc(-c2csc(Cc3nc4c(Br)cc(Br)cc4c(=O)n3-c3ccc(OC)cc3)n2)cc1               >             100
 6               Cc1nc2sc3c(N)ncnc3c2c(C)c1C               >              25
 7  C[N+](C)(C)c1cc[c]([Sn]([c]2ccc([N+](C)(C)C)cc2)([c]2ccc([N+](C)(C)C)cc2)[c]2ccc([N+](C)(C)C)cc2)cc1               >             100
 8  C=CCN1C[C@H](C)N([C@H](c2ccc(C(=O)N(CC)CC)cc2)c2cccc(OC)c2)C[C@H]1C               >             100
 9  C#CC1(O)C(COP(=O)(O)OCC2OC(n3cc(F)c(=O)[nH]c3=O)CC2O)OC(n2ccc(N)nc2=O)C1O (stereo not given)               >             100
10  N=C(N)c1ccc(-c2ccc(-c3ccc4ccccc4c3)s2)s1               =            3.52
11  CCOC(=O)CCC(NC(=O)c1ccc(Oc2nc3c(N)cc(C(F)(F)F)cc3nc2-c2ccccc2)cc1)C(=O)OCC (stereo not given)               >             100
12  O=c1oc2ccccc2c(O)c1C(c1ccc(-c2ccccc2)cc1)c1c(O)c2ccccc2oc1=O               =            33.2
13  Cc1ccc(S(=O)(=O)N/N=C2\CCCCCCCCCCC2CN(C)C)cc1 (stereo not given)               =            31.8
14  OCCCCn1cc(Cn2ncc3c(NCc4ccccc4)ncnc32)nn1               >             100
15  CC1=CP(=O)(c2ccccc2)C=C(C)C1=C(Cl)Cl (stereo not given)               =            16.6
16  Nc1cc2ncnn2c(SCC(=O)N/N=C/C(Br)=C\c2ccccc2)n1               =            30.5
17       C[n+]1c2ccccc2c(CNCC(=O)O)c2ccccc21               =            2.24
18  O=C(CC1C(=O)Nc2ccccc2S1(=O)=O)Nc1ccc(Cl)cc1 (stereo not given)               >             100
19  CNC(=O)c1c(F)cccc1Nc1nc(Nc2cc3c(cc2OC)CCN3C(=O)CN(C)C)nc2[nH]ccc12               =            3.42
20  CCOC(=O)C1C(c2ccc(OC)cc2)c2c([nH][nH]c2=O)CC1(C)O (stereo not given)               >             100

Each recorded value in this set is attributed to PubChem BioAssay (NCI).
